Entries and their measured MIC follow.
- System: Candida albicans
- measurementProtocol: Antifungal activity against FCZ-resistant Candida albicans 17# by CLSI based broth microdilution method
- Assay type: functional
Number in µg/mL, nothing else.

Example compounds with recorded MIC:
>>> readoutnumber("Fc1ccc(C(Cn2cncn2)[Se]C(Cn2cncn2)c2ccc(F)cc2F)c(F)c1 (stereo not drawn)")
8
>>> readoutnumber("Fc1ccc(C(Cn2ccnc2)[Se][Se]C(Cn2ccnc2)c2ccc(F)cc2)cc1 (stereo not drawn)")
32
>>> readoutnumber("Fc1ccc(C(Cn2ccnc2)[Se]C(Cn2ccnc2)c2ccc(F)cc2F)c(F)c1 (stereo not drawn)")
1

Q: Request body: readout MIC, system Candida albicans, query c1ccc(C(Cn2ccnc2)[Se]C(Cn2ccnc2)c2ccccc2)cc1 (stereo not drawn) . Return the value.
Result: 0.5

---

- System: Cryptococcus neoformans
- measurementProtocol: Antifungal activity against Cryptococcus neoformans by CLSI based broth microdilution method
- Type: functional
propertyMeasured: MIC (µg/mL)
Give your result in µg/mL as a bare value.

>>> readoutnumber("Fc1ccc(C(Cn2ccnn2)[Se]C(Cn2ccnn2)c2ccc(F)cc2F)c(F)c1 (stereo not given)")
32
>>> readoutnumber("OC(Cn1cncn1)(Cn1cncn1)c1ccc(F)cc1F [FLUCONAZOLE]")
4
>>> readoutnumber("Cc1ccc(C(Cn2ccnc2)[Se]C(Cn2ccnc2)c2ccc(C)cc2)cc1 (stereo not given)")
32
>>> readoutnumber("Clc1ccc(C(Cn2ccnn2)[Se]C(Cn2ccnn2)c2ccc(Cl)cc2Cl)c(Cl)c1 (stereo not given)")
64
>>> readoutnumber("Fc1ccc(C(Cn2ccnc2)[Se]C(Cn2ccnc2)c2ccc(F)cc2)cc1 (stereo not given)")
64
>>> readoutnumber("Clc1ccc(C(Cn2cncn2)[Se]C(Cn2cncn2)c2ccc(Cl)cc2Cl)c(Cl)c1 (stereo not given)")
4
>>> readoutnumber("Clc1ccc(C(Cn2cncn2)[Se]C(Cn2cncn2)c2ccc(Cl)cc2)cc1 (stereo not given)")
4
>>> readoutnumber("Clc1ccc(C(Cn2ccnc2)[Se]C(Cn2ccnc2)c2ccc(Cl)cc2Cl)c(Cl)c1 (stereo not given)")
64

Q: Notebook entry, Cryptococcus neoformans assay: MIC of c1ccc(C(Cn2ccnc2)[Se]C(Cn2ccnc2)c2ccccc2)cc1 (stereo not given) = ?
Result: 64

---

- measurementProtocol: Metabolic stability in mouse liver microsome assessed as half life
- Type: ADME
- conditionLabel: liver microsomes
propertyMeasured: half-life (min)
Please reply with the bare figure in min and do not write the unit itself.

>>> readoutnumber("Cc1ccc(C(Cn2ccnc2)[Se][Se]C(Cn2ccnc2)c2ccc(C)cc2)cc1 (centres undefined)")
21.2
>>> readoutnumber("Clc1ccc(C(Cn2ccnc2)[Se][Se]C(Cn2ccnc2)c2ccc(Cl)cc2Cl)c(Cl)c1 (centres undefined)")
41.1
>>> readoutnumber("Clc1ccc(C(Cn2ccnc2)[Se][Se]C(Cn2ccnc2)c2ccc(Cl)cc2)cc1 (centres undefined)")
24.4

Q: # half-life lookup, item Fc1ccc(C(Cn2ccnc2)[Se]C(Cn2ccnc2)c2ccc(F)cc2F)c(F)c1 (centres undefined)
Result: 9.8

---

- Tested on: Cryptococcus neoformans
- measurementProtocol: Antifungal activity against Cryptococcus neoformans by CLSI based broth microdilution method
- Assay type: functional
Measured MIC, listed per entry.

Past entries and their recorded results:
>>> result("Fc1ccc(C(Cn2ccnn2)[Se]C(Cn2ccnn2)c2ccc(F)cc2)cc1 (centres undefined)")
"> 64 µg/mL"
>>> result("Fc1ccc(C(Cn2cncn2)[Se]C(Cn2cncn2)c2ccc(F)cc2F)c(F)c1 (centres undefined)")
"4 µg/mL"
>>> result("Fc1ccc(C(Cn2cncn2)[Se]C(Cn2cncn2)c2ccc(F)cc2)cc1 (centres undefined)")
"> 64 µg/mL"

Attention now turns to another entry.
Q: Which MIC value is on record for Fc1ccc(C(Cn2cnnn2)[Se]C(Cn2cnnn2)c2ccc(F)cc2)cc1 (centres undefined) ?
Result: > 64 µg/mL

---

A collection of compounds and their measured MIC
- Test system: Candida albicans
- measurementProtocol: Antifungal activity against FCZ-resistant Candida albicans 632 by CLSI based broth microdilution method
- Type: functional

Example compounds with recorded MIC:
>>> result("Fc1ccc(C(Cn2cncn2)[Se]C(Cn2cncn2)c2ccc(F)cc2F)c(F)c1 (centres undefined)")
"32 mg/L"
>>> result("Fc1ccc(C(Cn2cncn2)[Se][Se]C(Cn2cncn2)c2ccc(F)cc2)cc1 (centres undefined)")
"64 mg/L"
>>> result("Fc1ccc(C(Cn2ccnn2)[Se][Se]C(Cn2ccnn2)c2ccc(F)cc2)cc1 (centres undefined)")
"> 64 mg/L"
>>> result("Clc1ccc(C(Cn2ccnn2)[Se][Se]C(Cn2ccnn2)c2ccc(Cl)cc2)cc1 (centres undefined)")
"> 64 mg/L"
>>> result("Clc1ccc(C(Cn2cnnn2)[Se]C(Cn2cnnn2)c2ccc(Cl)cc2)cc1 (centres undefined)")
"> 64 mg/L"

Q: Quick one: MIC of Fc1ccc(C(Cn2cnnn2)[Se]C(Cn2cnnn2)c2ccc(F)cc2)cc1 (centres undefined) ?
Result: > 64 mg/L

Q: Form field: reported MIC of Clc1ccc(C(Cn2ccnc2)[Se]C(Cn2ccnc2)c2ccc(Cl)cc2)cc1 (centres undefined)
Result: 2 mg/L

Q: What value of MIC has been reported for the following compound? Fc1ccc(C(Cn2ccnc2)[Se]C(Cn2ccnc2)c2ccc(F)cc2)cc1 (centres undefined)
Result: 4 mg/L

Q: Consider the compound Clc1ccc(C(Cn2ccnc2)[Se]C(Cn2ccnc2)c2ccc(Cl)cc2Cl)c(Cl)c1 (centres undefined) and give its measured MIC.
Result: 16 mg/L

Q: I would be grateful if you could share the reported MIC for Fc1ccc(C(Cn2cnnn2)[Se]C(Cn2cnnn2)c2ccc(F)cc2F)c(F)c1 (centres undefined) .
Result: > 64 mg/L

Q: Need MIC of Clc1ccc(C(Cn2cncn2)[Se][Se]C(Cn2cncn2)c2ccc(Cl)cc2Cl)c(Cl)c1 (centres undefined) , thanks.
Result: > 64 mg/L

Q: Can you share its MIC? I mean this compound: Clc1ccc(C(Cn2cncn2)[Se]C(Cn2cncn2)c2ccc(Cl)cc2)cc1 (centres undefined)
Result: > 64 mg/L

---

- measurementProtocol: Cytotoxicity against human MDA-MB-231 cells by MTT assay
- Type: toxicity, cell-based
propertyMeasured: IC50

Reference set, count: 5
>>> result("Clc1ccc(C(Cn2ccnc2)[Se][Se]C(Cn2ccnc2)c2ccc(Cl)cc2)cc1 (stereo unspecified)")
"5.5 µM"
>>> result("Clc1ccc(C(Cn2ccnc2)[Se]C(Cn2ccnc2)c2ccc(Cl)cc2)cc1 (stereo unspecified)")
"3.25 µM"
>>> result("Clc1ccc(C(Cn2ccnc2)[Se][Se]C(Cn2ccnc2)c2ccc(Cl)cc2Cl)c(Cl)c1 (stereo unspecified)")
"6.25 µM"
>>> result("Fc1ccc(C(Cn2ccnc2)[Se]C(Cn2ccnc2)c2ccc(F)cc2F)c(F)c1 (stereo unspecified)")
"8.26 µM"
>>> result("Cc1ccc(C(Cn2ccnc2)[Se]C(Cn2ccnc2)c2ccc(C)cc2)cc1 (stereo unspecified)")
"4.21 µM"

Q: // IC50 lookup, key: Cc1ccc(C(Cn2ccnc2)[Se][Se]C(Cn2ccnc2)c2ccc(C)cc2)cc1 (stereo unspecified)
Result: 5.04 µM

---

- measurementProtocol: Cytotoxicity against human HL-60 cells by MTT assay
- Type: toxicity, cell-based
pIC50 reference
Please note pIC50 is a logarithmic value: minus log10 of concentration in mol/L. Answer with that number alone.

Examples from the recorded data:
>>> readoutnumber("Cc1ccc(C(Cn2ccnc2)[Se][Se]C(Cn2ccnc2)c2ccc(C)cc2)cc1 (stereo not drawn)")
4.83
>>> readoutnumber("Fc1ccc(C(Cn2ccnc2)[Se]C(Cn2ccnc2)c2ccc(F)cc2F)c(F)c1 (stereo not drawn)")
5.34

Q: Look up pIC50 for this molecule: Clc1ccc(C(Cn2ccnc2)[Se][Se]C(Cn2ccnc2)c2ccc(Cl)cc2Cl)c(Cl)c1 (stereo not drawn)
Result: 4.49

---

Measured MIC of individual entries
- System: Candida parapsilosis
- measurementProtocol: Antifungal activity against Candida parapsilosis by CLSI based broth microdilution method
- Assay type: functional
- conditionLabel: Lodderomyces parapsilosis

>>> result("Clc1ccc(C(Cn2ccnn2)[Se]C(Cn2ccnn2)c2ccc(Cl)cc2Cl)c(Cl)c1 (stereo unspecified)")
"> 64 µg/mL"

Q: Checklist item: MIC tested on Candida parapsilosis, entry Clc1ccc(C(Cn2ccnn2)[Se]C(Cn2ccnn2)c2ccc(Cl)cc2)cc1 (stereo unspecified) , value?
Result: > 64 µg/mL

Q: Lab note: need MIC for Fc1ccc(C(Cn2cnnn2)[Se]C(Cn2cnnn2)c2ccc(F)cc2F)c(F)c1 (stereo unspecified) on Candida parapsilosis, anyone have it?
Result: > 64 µg/mL

Q: What value of MIC on Candida parapsilosis does Fc1ccc(C(Cn2ccnn2)[Se]C(Cn2ccnn2)c2ccc(F)cc2F)c(F)c1 (stereo unspecified) have?
Result: > 64 µg/mL

Q: For Candida parapsilosis, provide MIC of Fc1ccc(C(Cn2cncn2)[Se]C(Cn2cncn2)c2ccc(F)cc2F)c(F)c1 (stereo unspecified) please.
Result: > 64 µg/mL

Q: Query the reported MIC for Candida parapsilosis; item: Fc1ccc(C(Cn2cncn2)[Se]C(Cn2cncn2)c2ccc(F)cc2)cc1 (stereo unspecified)
Result: > 64 µg/mL

Q: State its MIC on Candida parapsilosis: c1ccc(C(Cn2ccnc2)[Se]C(Cn2ccnc2)c2ccccc2)cc1 (stereo unspecified)
Result: 4 µg/mL

Q: Give recorded MIC with Candida parapsilosis for the following compound: Clc1ccc(C(Cn2ccnc2)[Se]C(Cn2ccnc2)c2ccc(Cl)cc2)cc1 (stereo unspecified)
Result: 2 µg/mL

Q: Any idea what MIC came out for Clc1ccc(C(Cn2cnnn2)[Se]C(Cn2cnnn2)c2ccc(Cl)cc2)cc1 (stereo unspecified) on Candida parapsilosis?
Result: > 64 µg/mL

Q: Find MIC (Candida parapsilosis) for the entry Fc1ccc(C(Cn2cnnn2)[Se]C(Cn2cnnn2)c2ccc(F)cc2)cc1 (stereo unspecified)
Result: > 64 µg/mL

Q: Record lookup: for Candida parapsilosis, what MIC belongs to Clc1ccc(C(Cn2cncn2)[Se]C(Cn2cncn2)c2ccc(Cl)cc2)cc1 (stereo unspecified) ?
Result: > 64 µg/mL

Q: Enter reported MIC observed with Candida parapsilosis for OC(Cn1cncn1)(Cn1cncn1)c1ccc(F)cc1F
Result: 4 µg/mL

Q: Value wanted: MIC (Candida parapsilosis) of entry Clc1ccc(C(Cn2ccnc2)[Se]C(Cn2ccnc2)c2ccc(Cl)cc2Cl)c(Cl)c1 (stereo unspecified)
Result: 64 µg/mL

Q: Give Candida parapsilosis MIC for Clc1ccc(C(Cn2cnnn2)[Se]C(Cn2cnnn2)c2ccc(Cl)cc2Cl)c(Cl)c1 (stereo unspecified)
Result: > 64 µg/mL

Q: Any idea what MIC came out for Fc1ccc(C(Cn2ccnn2)[Se]C(Cn2ccnn2)c2ccc(F)cc2)cc1 (stereo unspecified) on Candida parapsilosis?
Result: > 64 µg/mL

Q: MIC of Cc1ccc(C(Cn2ccnc2)[Se]C(Cn2ccnc2)c2ccc(C)cc2)cc1 (stereo unspecified) on Candida parapsilosis?
Result: 4 µg/mL
